# credit: PubChem BioAssay AID2060328

System: MDA-MB-231 multicell spheroids, viability (%T/C)
Experiment: Anticancer human tumor MDA-MB-231 cell line growth inhibition [IpAb];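 further: viability read after seven days of drug exposure; 100% = DMSO vehicle control viability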
Settings: second compound 0.1 µM; first compound 0.01 µM; hits give low values
Protocol: Combinatorial screen of targeted agents with ipatasertib and abemaciclib in multi-cell type tumor spheroids […] Compounds. […] If the clinical Cmax for an agent had not been determined, the highest concentration tested was 10 microM. NCI60 Cell Culture. […] The optimal seeding densities for each of the cell lines at each time point assessed were determined prior to performing the concentration response studies. […]
For each entry below, report its viability, T/C value.
Answers are plain numbers, in %.

get_value(item= COc1c(OCCCN2CCOCC2)ccc2c3n(c(=NC(=O)c4cnc(N)nc4)nc12)CCN3 + CCN1CCN(Cc2ccc(Nc3ncc(F)c(-c4cc(F)c5nc(C)n(C(C)C)c5c4)n3)nc2)CC1 , readout=viability, T/C) returns 44.2

Briefly, viability, T/C measured for Cn1ncnc1[C@H]1c2n[nH]c(=O)c3cc(F)cc(c23)N[C@@H]1c1ccc(F)cc1 + CC(C)NCC(C(=O)N1CCN(c2ncnc3c2C(C)CC3O)CC1)c1ccc(Cl)cc1 : 78.9

Continuing:
viability, T/C reported for this compound CC(C)n1nc(-c2ccc3oc(N)nc3c2)c2c(N)ncnc21 + CC(C)NCC(C(=O)N1CCN(c2ncnc3c2C(C)CC3O)CC1)c1ccc(Cl)cc1 : 54.5
